system_tested: NDM-1 metallo-beta-lactamase (Klebsiella pneumoniae)
Sequence (C7C422 whole entry, looked up): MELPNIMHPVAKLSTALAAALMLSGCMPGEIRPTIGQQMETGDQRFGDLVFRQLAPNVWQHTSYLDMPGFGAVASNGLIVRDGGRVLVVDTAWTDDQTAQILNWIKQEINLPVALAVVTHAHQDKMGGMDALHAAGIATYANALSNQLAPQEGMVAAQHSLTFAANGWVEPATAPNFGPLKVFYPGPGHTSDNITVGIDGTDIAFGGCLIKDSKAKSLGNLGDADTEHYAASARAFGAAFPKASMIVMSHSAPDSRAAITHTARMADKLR
experiment: Steady-state kinetic analysis, nitrocefin hydrolysis, NDM-1
condition_context: second NDM-1 column of Table 1
measured_property: pKi
pKi is defined as minus the log10 of a concentration measured in mol/L.

Input: Return reported pKi. Input molecule: Cc1cc(Br)c2c(CP(=O)(O)O)cc(=O)oc2c1
Output: 4.26

====

Lab note: pKi readings collected with VIM-2 (Escherichia coli, UniProt Q5U7L7) for the following compounds.
pKi is defined as minus the log10 of a concentration measured in mol/L.

>>> print(df.to_string())
                   chemical_structure  test_value
0     O=c1cc(CP(=O)(O)O)c2ccccc2[nH]1        5.04
1  O=c1cc(CP(=O)(O)O)c2c(F)cc(F)cc2o1        5.33

Input: Name the recorded pKi of Cc1cc(Br)c2c(CP(=O)(O)O)cc(=O)oc2c1 , assay system VIM-2 (Escherichia coli, UniProt Q5U7L7).
Output: 5.74

Input: Name the recorded pKi of Cn1c(=O)cc(CP(=O)(O)O)c2ccccc21 , assay system VIM-2 (Escherichia coli, UniProt Q5U7L7).
Output: 4.81

Input: Name the recorded pKi of O=P(O)(O)Cc1cccc2cccnc12 , assay system VIM-2 (Escherichia coli, UniProt Q5U7L7).
Output: 4.61
